The entries below come with measured inhibition at 10 µM values attached.
Molecular target: Src kinase (Homo sapiens (Human))
Sequence (P12931 whole entry, looked up): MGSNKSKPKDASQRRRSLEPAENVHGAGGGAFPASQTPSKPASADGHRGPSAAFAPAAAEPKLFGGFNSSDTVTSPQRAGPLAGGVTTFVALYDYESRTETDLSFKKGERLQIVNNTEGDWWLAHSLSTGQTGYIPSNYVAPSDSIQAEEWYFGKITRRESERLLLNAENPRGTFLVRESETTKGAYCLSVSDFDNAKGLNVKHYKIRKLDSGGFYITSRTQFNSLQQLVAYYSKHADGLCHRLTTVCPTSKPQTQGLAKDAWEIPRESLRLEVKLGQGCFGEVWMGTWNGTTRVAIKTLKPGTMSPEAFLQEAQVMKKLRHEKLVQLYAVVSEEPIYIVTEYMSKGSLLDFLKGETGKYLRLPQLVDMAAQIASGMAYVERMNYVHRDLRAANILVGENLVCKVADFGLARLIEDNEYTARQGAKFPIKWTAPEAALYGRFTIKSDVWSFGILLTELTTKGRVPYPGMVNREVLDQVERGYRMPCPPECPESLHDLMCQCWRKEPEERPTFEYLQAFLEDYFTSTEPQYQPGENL
Test: Reaction Biology Corp. kinase assay, Src
Conditions: read-out: % inhibition of kinase activity, Src (category), 10 μM; compounds tested by Reaction Biology Corp.

| smilesString | inhibition at 10 µM |
| --- | --- |
| COC(=O)c1cc2cc(NC(=O)c3c(C)cccc3Cl)cnc2[nH]1 | > 50% |
| COC(=O)c1cc2cc(NC(=O)c3c(Cl)cccc3Cl)cnc2[nH]1 | > 50% |
| COC(=O)c1cc2cc(NCc3ccccc3Br)cnc2[nH]1 | > 50% |
| COC(=O)c1cc2cc(NCc3cc(NC(=O)c4ccc(CN5CCN(C)CC5)cc4)ccc3C)cnc2[nH]1 | > 50% |
| COC(=O)c1cc2cc(NC(=O)c3ccc4[nH]ccc4c3)cnc2[nH]1 | < 10% |
| COC(=O)c1cc2cc(NCc3c(C)cccc3Cl)cnc2[nH]1 | > 50% |
| COC(=O)c1cc2cc(NCc3ncc[nH]3)cnc2[nH]1 | 10 to 50% |
| COC(=O)c1cc2cc(NCc3ccc4[nH]ccc4c3)cnc2[nH]1 | > 50% |
| COC(=O)c1cc2cc(NCc3ccccc3OC(F)(F)F)cnc2[nH]1 | < 10% |
